# credit: the nanobody polyreactivity screen of Harvey et al. (2022)

assay: yeast display, Sf9 membrane polyspecificity reagent, FACS + sequencing; frameworks hold sequencing errors
measured_metric: polyreactivity (PSR sort gate)

The examples below pair each entry with its known result.
Noted for QVQLVESGGGLVQAGGSLRLSCAASGGIFDTYVMGWYRQAPGKERELVAAITWSGGSTYYADSVKGRFTISRDNAKNTVYLQMNSLKPEDTAVYYCAASGYPIYHDDYWGQGTQVTVSS : its polyreactivity (PSR sort gate) reads low polyreactivity

Recorded polyreactivity (PSR sort gate) (sequence QVQLVESGGGLVQAGGTLRLSCAASGYIFVIYAMGWYRQAPGKEREWVAAISWSGDTTYYADSVKGRFTISRDNAKNTVYLQMNSLKPEDTAVYYCNAETAYYQVDYWGQGTQVTVSS ): low polyreactivity

Given item QVQLVESGGGLVQAGGSLRLSCAASGSTFSGYAMGWYRQAPGKERELVAAISYSGGGTYYEDSVKGRFTISRDNAKNTVYLQMNSLKPEDTAVYYCATLGSLRYYWPGYDYWGQGTQVTVSS , the value recorded as its polyreactivity (PSR sort gate) is low polyreactivity

Reported polyreactivity (PSR sort gate) of QVKLVESGGGLVQAGGSLRLSCAASGRTFPYYAKGWYRQAPGKERELVAAISWSGGSTYYADSVKGRFTISRDNAKNTVYLQMNSLKPEDTAVYYCNTVFSPWPDFRRFGYWGQGTQVTVSS : high polyreactivity

Here's the next entry for you.
Quick note, polyreactivity (PSR sort gate) for QVQLVESGGGLVQAGGSLRLICAASGSTQVYYAMGWYRQAPGKETELVASINHSGARTRYADSVKGRFTISRDNAKNTVYLQMNSLKPEVTAVYYCAAVARSTTYRYNYWGQGTQVTVSS landed at high polyreactivity
